System: NCI-H226 lung
Experiment: NCI-60 one-dose screen, 48 h
Conditions: 10 µM unless noted
The panel holds about 83,000 compounds, 20% with a hit somewhere; the sample as a whole holds those more often. Activity calls are given as the source filed them. How the source made its calls: active means growth percent below 10; inactive means the rest.
Parameter call: string, one of active, inactive

Example entries begin here.
compound: Cn1c(=O)cc(NC(=O)CN2CCN(c3cc4c(cc3F)c(=O)c(C(=O)O)cn4C3CC3)CC2)[nH]c1=O
class: inactive

compound: CC(O)CN1CCCCC1 (configuration not stated)
class: inactive

compound: O=C(Nc1ccncc1)C(=O)c1cn(S(=O)(=O)c2ccc(Br)cc2)c2ccccc12
class: inactive

compound: COc1ccc(-c2cc3c(OC)c(OC)c(OC)cc3oc2=O)cc1
class: inactive

compound: Cc1cc(N/N=C/c2nc(-c3ccccc3)oc2C)c2cc(Cl)ccc2n1
class: inactive

Input: Entry COc1ccc(C2NN=C3c4ccccc4CCC32)cc1 (configuration not stated) : call = ?
Output: inactive

Input: Entry C=C[C@@H]1C[C@H](O)Cc2c(C)cc(C)cc2N1 : call = ?
Output: inactive

Input: Entry CCN(CC)CCC(CNc1ccnc2cc(Cl)ccc12)c1ccccc1 (configuration not stated) : call = ?
Output: inactive

Input: Entry CC(C)(C)n1cc(-c2ccnc(NCCCNS(=O)(=O)c3ccc(Br)cc3)c2)c(-c2cccc(O)c2)n1 : call = ?
Output: inactive

Input: Entry CC(C)(C)NCCC(O)c1cc2c(Cl)cc(Cl)cc2c2cc(C(F)(F)F)ccc12 (configuration not stated) : call = ?
Output: active

Input: Entry N/C(=N\C(N)=N\c1nc2ccccc2s1)c1cccc(Br)c1 : call = ?
Output: inactive

Input: Entry CN(C)CC(C(=O)c1ccccc1)c1ccccc1 (configuration not stated) : call = ?
Output: inactive

Input: Entry CCCCOc1ccc(/C=C2/SC(N3CCCC3)=NC2=O)cc1 : call = ?
Output: inactive

---

Test system: MALME-3M melanoma
Test: NCI-60 one-dose screen, 48 h (100 = growth as untreated, 0 = no growth, -100 = all killed)
Details: 10 µM unless noted
Protocol: Cells are grown in 96 well plates and exposed to the test compound for 48 hours. Compounds are tested at a single concentration, which is 10^-5 M for most compounds. The reported endpoint is percent growth (GI% or GIPRCNT), where numbers from 0 - 100% represent growth inhibition, and numbers from -100% - 0 represent cell death. For example, a value of 40 represents 60% growth inhibition. A value of 0 means no net growth occurred over the course of the experiment. […]
This is part of a sample that, as a whole, favours compounds with a hit. Of some 83,000 tested, about 20% had one in any assay. The source made the active and inactive calls. The calls were made as follows: active = growth percent below 10; inactive = the rest.
value_kind: growth

compound: Cc1nn(-c2ccc(Cl)cc2)c2ncnc(N/N=C/c3cccc([N+](=O)[O-])c3)c12
observed_measurement: 97.2% (inactive)
//
compound: CCCCN(CCCC)c1ccc(C(=N)c2ccc(N(CCCC)CCCC)cc2)cc1
observed_measurement: -64.5% (active)
//
compound: CCCCCCCCCCCCNC(=O)[C@H]1CSC(c2cc(Br)cs2)N1 (stereo partly drawn)
observed_measurement: 13.1% (inactive)
//
compound: NC(=S)N/N=C1\CCCC(C(F)(F)F)C1 (stereo not drawn)
observed_measurement: 104% (inactive)
//
compound: COc1ccc(/C=C2/C(=O)NC(SCC(=O)N3CCN(c4cc5c(cc4F)c(=O)c(C(=O)O)cn5C4CC4)CC3)=NC2N)cc1OC (stereo not drawn)
observed_measurement: 108% (inactive)
//
compound: COc1ccc(-c2ccc(-c3ccc(-c4ccc(C(=N)N)cc4)s3)s2)cc1OC
observed_measurement: 92.6% (inactive)
//
compound: c1cc2[nH]ncc2cc1-c1nc2ccc3[nH]ncc3c2c2c1CCC2
observed_measurement: 47.3% (inactive)

API: the following record is the query input.
Input CCN(CC)c1ccc(C(=N)c2ccc(N(CC)CC)cc2)cc1 . Output growth: -32.6% (active)
